B1: HNF4A (parent)
chain: RFSRQCVVDKDKRNQCRYCRLKKC

Variants of: B1
measurement description: protein stability index of a GFP-peptide fusion (GPS, HEK-293T) (PSI 1-6); higher = more stable;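 also: lentivirally expressed fusions sorted by FACS into six bins by GFP to DsRed ratio, PSI derived from sequencing read proportions per bin multiplied by bin number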
run conditions: c terminus: a fixed tail appended
Entries and their protein stability index values follow.
Form: value (number only, do not type unit).

Recorded protein stability index (variant Q5F ): 2.18

Recorded protein stability index (variant Q5A ): 2.24

Recorded protein stability index (variant F2W ): 2.37

Recorded protein stability index (variant R1Y ): 2.19

Recorded protein stability index (variant C24G ): 2.41

Recorded protein stability index (variant R1M ): 1.54

Recorded protein stability index (variant N14T ): 2.31

Recorded protein stability index (variant Y18E ): 3.41

Next:
Recorded protein stability index (variant R13W ): 1.93

Recorded protein stability index (variant K10H ): 2.79

Recorded protein stability index (variant S3N ): 2.76

Recorded protein stability index (variant Q5I ): 2.16

Recorded protein stability index (variant S3Q ): 2.5

Recorded protein stability index (variant V8D ): 2.8

Recorded protein stability index (variant R17C ): 2.29

Recorded protein stability index (variant K22R ): 2.9

Recorded protein stability index (variant C24V ): 2.34

Recorded protein stability index (variant D9M ): 3.42
